Consider the following compounds and their measured viability, T/C readings.
- Test system: 935938-334-R-J1-PDC complex spheroid viability
- Assay Notes: Anticancer human tumor 935938-334-R-J1-PDC patient-derived small intestine adenocarcinoma cell line growth inhibition [POLQ]
- Experimental Conditions: second compound 1 µM; first compound 3.16 µM; hits give low values
Give the quantity in %, number only.

stdin: Report the value of viability, T/C obtained on 935938-334-R-J1-PDC complex spheroid viability for CNCc1ccc(-c2[nH]c3cc(F)cc4c3c2CCNC4=O)cc1 + Nc1ccc(C#CCN(C(=O)Cc2ncc(C(F)(F)F)cc2C(F)(F)F)c2ccc(F)cc2)nn1 .
stdout: 111

stdin: Given CCc1cc2c(N3CCc4c(cc(Cn5ccnc5)cc4-c4cn(C)nc4C(F)(F)F)C3=O)ccnc2c(OC)n1 + Nc1ccc(C#CCN(C(=O)Cc2ncc(C(F)(F)F)cc2C(F)(F)F)c2ccc(F)cc2)nn1 , report its viability, T/C on 935938-334-R-J1-PDC complex spheroid viability.
stdout: 59.5

---

Here the recorded viability, T/C is given for each entry.
- System: 935938-334-R-J1-PDC complex spheroid viability
- Assay Notes: Anticancer human tumor 935938-334-R-J1-PDC cell line growth inhibition [POLQ];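 further: spheroids exposed to drugs for seven days before viability read; 100% = DMSO vehicle control wells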
- Experimental Conditions: second compound 1 µM; first compound 0.316 µM; hits give low values
Numbers only here, please. The scale is %.

1. CCc1cc2c(N3CCc4c(cc(Cn5ccnc5)cc4-c4cn(C)nc4C(F)(F)F)C3=O)cc(C)nc2c(OC)n1 + COC1C(OC(N)=O)C(O)C(Oc2ccc3c(O)c(NC(=O)c4ccc(O)c(CC=C(C)C)c4)c(=O)oc3c2C)OC1(C)C
90.6
2. CC1COCCN1c1cc(C2(S(C)(=N)=O)CC2)nc(-c2ccnc3[nH]ccc23)n1 (centres undefined) + Cc1cccc(N(C)C(=O)C2C(O)CCN2c2nc(C)cc(C(F)(F)F)c2C#N)c1
97.6
3. CCc1cc2c(N3CCc4c(cc(Cn5ccnc5)cc4-c4cn(C)nc4C(F)(F)F)C3=O)cc(C)nc2c(OC)n1 + Nc1ccc(C#CCN(C(=O)Cc2ncc(C(F)(F)F)cc2C(F)(F)F)c2ccc(F)cc2)nn1
65
4. O=C(c1cc(Cc2n[nH]c(=O)c3ccccc23)ccc1F)N1CCN(C(=O)C2CC2)CC1 + COC1C(OC(N)=O)C(O)C(Oc2ccc3c(O)c(NC(=O)c4ccc(O)c(CC=C(C)C)c4)c(=O)oc3c2C)OC1(C)C
102
5. C#Cc1c(F)ccc2cc(O)cc(-c3ncc4c(N5CC6CCC(C5)N6)nc(OCC56CCCN5CC(F)C6)nc4c3F)c12 (centres undefined) + Nc1ccc(C#CCN(C(=O)Cc2ncc(C(F)(F)F)cc2C(F)(F)F)c2ccc(F)cc2)nn1
92.1

stdin: Please give the documented viability, T/C of COc1cccc2c1C(=O)c1c(O)c3c(c(O)c1C2=O)CC(O)(C(=O)CO)CC3OC1CC(N)C(O)C(C)O1 (centres undefined) + Nc1ccc(C#CCN(C(=O)Cc2ncc(C(F)(F)F)cc2C(F)(F)F)c2ccc(F)cc2)nn1
stdout: 30.3

stdin: Hello, please tell me recorded viability, T/C for this one: C#Cc1c(F)ccc2cc(O)cc(-c3ncc4c(N5CC6CCC(C5)N6)nc(OCC56CCCN5CC(F)C6)nc4c3F)c12 (centres undefined) + Cc1cccc(N(C)C(=O)C2C(O)CCN2c2nc(C)cc(C(F)(F)F)c2C#N)c1
stdout: 64.3

stdin: Please supply the value of reported viability, T/C for the item CC1COCCN1c1cc(C2(O)CC3CCC(C2)O3)c2cnn(-c3ccn[nH]3)c2n1 (centres undefined) + Nc1ccc(C#CCN(C(=O)Cc2ncc(C(F)(F)F)cc2C(F)(F)F)c2ccc(F)cc2)nn1
stdout: 29.9

stdin: Return viability, T/C (reported value) for this compound: CC1COCCN1c1cc(C2(O)CC3CCC(C2)O3)c2cnn(-c3ccn[nH]3)c2n1 (centres undefined) + COC1C(OC(N)=O)C(O)C(Oc2ccc3c(O)c(NC(=O)c4ccc(O)c(CC=C(C)C)c4)c(=O)oc3c2C)OC1(C)C
stdout: 35.8

stdin: Report viability, T/C, nothing else, for this compound: CCc1cc2c(N3CCc4c(cc(Cn5ccnc5)cc4-c4cn(C)nc4C(F)(F)F)C3=O)ccnc2c(OC)n1 + Nc1ccc(C#CCN(C(=O)Cc2ncc(C(F)(F)F)cc2C(F)(F)F)c2ccc(F)cc2)nn1
stdout: 82.7

stdin: Let me know recorded viability, T/C for COc1ccc([C@@H](O)c2cc(-c3ncnc4cc(N5CCOCC5)ccc34)c(F)cc2Cl)nn1 + Nc1ccc(C#CCN(C(=O)Cc2ncc(C(F)(F)F)cc2C(F)(F)F)c2ccc(F)cc2)nn1 , thanks.
stdout: 106

stdin: Give the reported viability, T/C for this compound. O=C(c1cc(Cc2n[nH]c(=O)c3ccccc23)ccc1F)N1CCN(C(=O)C2CC2)CC1 + Nc1ccc(C#CCN(C(=O)Cc2ncc(C(F)(F)F)cc2C(F)(F)F)c2ccc(F)cc2)nn1
stdout: 107

stdin: Return viability, T/C for the following compound: COc1cc(C2c3cc4c(cc3C(OC3OC5COC(C)OC5C(O)C3O)C3COC(=O)C23)OCO4)cc(OC)c1O (centres undefined) + COC1C(OC(N)=O)C(O)C(Oc2ccc3c(O)c(NC(=O)c4ccc(O)c(CC=C(C)C)c4)c(=O)oc3c2C)OC1(C)C
stdout: 62.2

stdin: Answer with reported viability, T/C of C=CC(=O)N1CCN(c2nc(=O)n(-c3c(C)ccnc3C(C)C)c3nc(-c4c(O)cccc4F)c(F)cc23)C(C)C1 (centres undefined) + Nc1ccc(C#CCN(C(=O)Cc2ncc(C(F)(F)F)cc2C(F)(F)F)c2ccc(F)cc2)nn1
stdout: 98.4

stdin: Return viability, T/C (reported value) for this compound: CC1COCCN1c1cc(C2(S(C)(=N)=O)CC2)nc(-c2ccnc3[nH]ccc23)n1 (centres undefined) + Nc1ccc(C#CCN(C(=O)Cc2ncc(C(F)(F)F)cc2C(F)(F)F)c2ccc(F)cc2)nn1
stdout: 94.2

stdin: Please look at this compound and report its viability, T/C: CCCS(=O)(=O)Nc1ccc(F)c(C(=O)c2c[nH]c3ncc(-c4ccc(Cl)cc4)cc23)c1F + COC1C(OC(N)=O)C(O)C(Oc2ccc3c(O)c(NC(=O)c4ccc(O)c(CC=C(C)C)c4)c(=O)oc3c2C)OC1(C)C
stdout: 101

stdin: Input CCc1cc2c(N3CCc4c(cc(Cn5ccnc5)cc4-c4cn(C)nc4C(F)(F)F)C3=O)cc(C)nc2c(OC)n1 + Cc1cccc(N(C)C(=O)C2C(O)CCN2c2nc(C)cc(C(F)(F)F)c2C#N)c1 , output reported viability, T/C.
stdout: 55.6

stdin: // Input: O=C(Nc1ccc(O)c(NS(=O)(=O)c2ccc(F)cc2)c1)c1ccc(-c2ccccc2)cc1 + COC1C(OC(N)=O)C(O)C(Oc2ccc3c(O)c(NC(=O)c4ccc(O)c(CC=C(C)C)c4)c(=O)oc3c2C)OC1(C)C . Output its viability, T/C only.
stdout: 96.2

stdin: Entry CC1COCCN1c1cc(C2(O)CC3CCC(C2)O3)c2cnn(-c3ccn[nH]3)c2n1 (centres undefined) + Cc1cccc(N(C)C(=O)C2C(O)CCN2c2nc(C)cc(C(F)(F)F)c2C#N)c1 needs its viability, T/C filled in; supply it.
stdout: 37

---

- Test system: 935938-334-R-J1-PDC complex spheroid viability
- Assay Notes: Anticancer human tumor 935938-334-R-J1-PDC cell line growth inhibition [POLQ];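 further: spheroids exposed to drugs for seven days before viability read; 100% = DMSO vehicle control wells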
- Experimental Conditions: second compound 0.1 µM; first compound 0.316 µM; hits give low values
Class key for viability, T/C values: interval 1 = under 30%, interval 2 = from 30% up to 80%, interval 3 = 80% and over

1) COc1ccc([C@@H](O)c2cc(-c3ncnc4cc(N5CCOCC5)ccc34)c(F)cc2Cl)nn1 + Cc1cccc(N(C)C(=O)C2C(O)CCN2c2nc(C)cc(C(F)(F)F)c2C#N)c1
interval 2
2) COc1cccc2c1C(=O)c1c(O)c3c(c(O)c1C2=O)CC(O)(C(=O)CO)CC3OC1CC(N)C(O)C(C)O1 (configuration not stated) + COC1C(OC(N)=O)C(O)C(Oc2ccc3c(O)c(NC(=O)c4ccc(O)c(CC=C(C)C)c4)c(=O)oc3c2C)OC1(C)C
interval 2
3) COc1cc(C2c3cc4c(cc3C(OC3OC5COC(C)OC5C(O)C3O)C3COC(=O)C23)OCO4)cc(OC)c1O (configuration not stated) + Nc1ccc(C#CCN(C(=O)Cc2ncc(C(F)(F)F)cc2C(F)(F)F)c2ccc(F)cc2)nn1
interval 2

stdin: Record COc1cc(C2c3cc4c(cc3C(OC3OC5COC(C)OC5C(O)C3O)C3COC(=O)C23)OCO4)cc(OC)c1O (configuration not stated) + COC1C(OC(N)=O)C(O)C(Oc2ccc3c(O)c(NC(=O)c4ccc(O)c(CC=C(C)C)c4)c(=O)oc3c2C)OC1(C)C — which class?
stdout: interval 2

stdin: Using the reported viability, T/C, which band applies to CCCS(=O)(=O)Nc1ccc(F)c(C(=O)c2c[nH]c3ncc(-c4ccc(Cl)cc4)cc23)c1F + Cc1cccc(N(C)C(=O)C2C(O)CCN2c2nc(C)cc(C(F)(F)F)c2C#N)c1 ?
stdout: interval 3
